# target: IL-23 (human, p19/p40 heterodimer) (Homo sapiens, UniProt Q9NPF7;P29460 SEQ:20-189,SEQ:23-328)
# Sequence (Q9NPF7 20-189, chain 1 of 2): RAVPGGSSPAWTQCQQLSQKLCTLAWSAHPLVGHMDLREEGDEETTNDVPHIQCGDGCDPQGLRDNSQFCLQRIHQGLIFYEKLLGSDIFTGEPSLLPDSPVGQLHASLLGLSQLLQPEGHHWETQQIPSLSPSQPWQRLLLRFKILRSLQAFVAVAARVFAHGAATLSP
# Sequence (P29460 23-328, chain 2 of 2): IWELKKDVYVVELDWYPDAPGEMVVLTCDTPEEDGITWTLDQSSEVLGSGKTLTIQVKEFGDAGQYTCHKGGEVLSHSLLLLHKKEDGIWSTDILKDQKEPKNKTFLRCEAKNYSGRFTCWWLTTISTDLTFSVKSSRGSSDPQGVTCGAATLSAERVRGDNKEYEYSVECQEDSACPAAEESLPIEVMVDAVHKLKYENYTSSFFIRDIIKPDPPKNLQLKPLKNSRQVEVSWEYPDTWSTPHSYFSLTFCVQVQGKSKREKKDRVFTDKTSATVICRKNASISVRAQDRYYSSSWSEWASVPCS
# test description: filter; -tRNA
# condition info: tags: R&D Systems, carrier free
quantity name: pKd
Just so you know, pKd here is -log10 of the concentration in molar units; reply with that number alone.

Sure, the documented pKd for ACAGGCAAGUAAUUGGGGAGUGCGGGCGGGGUGU (mixed, deoxy A,G; 2'-OMe C,U; PS 14-15 [PS between 14-15; 2'-OMe C,U at 2,6,10,13,14,21,23,27,32,34; deoxy A,G at all other positions]) [ARC1159] is 7.11

Sure, the documented pKd for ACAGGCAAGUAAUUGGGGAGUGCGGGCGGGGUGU (mixed, deoxy A,G; 2'-OMe C,U; PS 12-13 [PS between 12-13; 2'-OMe C,U at 2,6,10,13,14,21,23,27,32,34; deoxy A,G at all other positions]) [ARC1157] is 7.16

Sure, the documented pKd for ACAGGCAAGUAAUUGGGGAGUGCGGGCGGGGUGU (mixed, deoxy A,G; 2'-OMe C,U; PS 6-7) [ARC1151] is 6.85

Sure, the documented pKd for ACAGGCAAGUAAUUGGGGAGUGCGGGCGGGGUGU (mixed, deoxy A,G; 2'-OMe C,U; PS 33-34 [PS linkage 33-34; 2'-OMe C,U at 2,6,10,13,14,21,23,27,32,34; all A,G 2'-deoxy]) [ARC1169] is 7.13
